- tested on: T1, human GITR (human, UniProt Q9Y5U5 26-241)
- T1 sequence: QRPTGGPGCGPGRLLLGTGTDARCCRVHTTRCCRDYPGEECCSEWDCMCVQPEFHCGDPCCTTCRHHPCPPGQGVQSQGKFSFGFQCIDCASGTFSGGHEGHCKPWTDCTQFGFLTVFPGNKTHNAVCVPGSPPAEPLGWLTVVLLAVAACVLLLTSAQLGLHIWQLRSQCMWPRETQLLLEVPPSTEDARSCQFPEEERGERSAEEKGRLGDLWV
- method description: cell-based or functional assay
observation type: Proliferation EC50 (µg/mL)
Write the number in µg/mL without appending the unit.

Example cases with answers are listed next.
binder	units of measure	Proliferation EC50
33C9v5 (antibody, human IgG1, kappa, V domains shown, Engineered variant; also called Ab54; SS-16951) VH: QVQVVESGGGVVQPGRSLRLSCAASGFTFSSYGMHWVRQAPGKGLEWVSVIWYEGSNKYYADTVKGRFTISRDNSKNTLYLQMNSLRAEDTAVYYCARGGLLGYYYYYGMDVWGQGTTVTVSS VL: DIQMTQSPSSLSASVGDRVTITCRASQGIRNDLGWYQQKPGKAPKLLIYDASSLQSGVPSRFSGSGSGTEFTLTISSLQPEDFATYYCLQHHSYPWTFGQGTKVEIKR	µg/mL	0.018
41G5v4 (antibody, human IgG1, kappa, V domains shown, Engineered variant; also called Ab58; SS-16954) VH: QVQLVESGGGVVQPGRSLRLSCAASGFTFSSYGMHWVRQAPGKGLEWVAVIWYPGSNKYYAESVKGRFTISRDNSKNTLYLQMNSLRAEDTAVYYCARGGELGRYYYYGMDVWGQGTTVTVSS VL: DIQMTQSPSSLSASVGDRVTVTCRASQGIRNDLGWYQQKPGKAPKLLIYAASSLQSGVPSRFSGSGSGTEFTLTISSLQPEDFATYYCLQHNNYPWTFGQGTKVDIKR	µg/mL	0.015

Q: Provide Proliferation EC50 value for the following binder: 5H7 (antibody, human IgG1, kappa, V domains shown, Parental fully human antibody; also called Ab17; SS-10943) VH: QVQLQESGPGLVKPSQTLSLTCTVSGGSISSGGYFWSWIRQHPGKGLEWIGYIYYSGTTYYNPSLKSRVTISIDTSKNHFSLKLSSVTAADTAVYYCARDLFYYDSSGPRGFDPWGQGTLVTVSS VL: EIVLTQSPGTLSLSPGERATLSCRASQTVSSNYLAWYQQKPGQAPRLLIYGSSTRATGIPDRFSGSGSGTDFTLTISRLEPEDFAVYYCQQYDSSPWTFGQGTKVEIKR
Result: 0.008
